System: Staphylococcus epidermidis
Assay: Antibacterial activity against methicillin-sensitive Staphylococcus epidermidis 12-5 by broth microdilution method
Type: functional
value_type: MIC (µg/mL)

1) CC[C@H]1OC(=O)[C@H](C)[C@@H](O[C@H]2C[C@@](C)(OC)[C@@H](O[C@@H]3O[C@H](C)[C@@H](O)[C@H](N(C)C)[C@H]3O)[C@H](C)O2)[C@H](C)[C@@H](O[C@@H]2O[C@H](C)C[C@H](N(C)C)[C@H]2O)[C@@](C)(OC)C[C@@H](C)C(=O)[C@H](C)[C@@H](O)[C@]1(C)O :: 16
2) CC[C@H]1OC(=O)[C@H](C)[C@@H](O[C@H]2C[C@@](C)(OC)[C@@H](O[C@@H]3O[C@H](C)[C@@H](O)[C@H](N(C)C)[C@H]3O)[C@H](C)O2)[C@H](C)[C@@H](O[C@@H]2O[C@H](C)C[C@H](N(C)C)[C@H]2O)[C@@](C)(OC)C[C@@H](C)C(=O)[C@H](C)[C@H]2OC(=O)O[C@@]21C :: 16
3) CC[C@H]1OC(=O)[C@H](C)[C@@H](O[C@H]2C[C@@](C)(OC)[C@@H](O[C@@H]3O[C@H](C)[C@@H](O)[C@H](N(C)C)[C@H]3OC(=O)c3ccccc3)[C@H](C)O2)[C@H](C)[C@@H](O[C@@H]2O[C@H](C)C[C@H](N(C)C)[C@H]2O)[C@@](C)(OC)C[C@@H](C)C(=O)[C@H](C)[C@H]2OC(=O)O[C@@]21C :: 2

// provenance: ChEMBL document CHEMBL2440040
